Method Summary: Pharmacokinetics after intravenous and oral administration in rats
Assay type: in vivo
Test Settings: iv dosing, 1 mg/kg
Quantity Measured: Cl/F (mL/min/kg)
The reply should contain only the number, in mL/min/kg.

In [3]: df
Out[3]:
                                   compound        uom  measurement
0  Cc1c2ccc(Nc3ncc(Cl)c(NC4CCC5(CC4)CCN(C(=O)CC#N)CC5)n3)cc2nn1C [Ex. 6]  mL/min/kg         22.3
1  Cc1cnc(Nc2ccc3c(C)n(C)nc3c2)nc1NC1CCC2(CC1)CCN(C(=O)CC#N)CC2 [Ex. 12]  mL/min/kg          114

Data request: Request the reported Cl/F associated with Cc1c2ccc(Nc3nccc(N(C)C4CCC5(CC4)CCN(C(=O)CC#N)C5)n3)cc2nn1C (stereo not drawn) [Ex. 2]
Data returned: 49.8
